- procedure.summary: qHTS for Inhibitors of the Aldehyde Dehydrogenase Family (ALDH1A2, ALDH1A3, ALDH2, ALDH3A1) (AID 2061307); further: nearly all actives have a fitted effect of over 50% in size
- conditions.used: ALDH inhibition qHTS; series mostly up to 50.3 µM
Inconclusive results are not listed. Calls of active or inactive are those of the source. The call rests on the fitted dose curve; in most records, active means well fitted inhibition curve with a large enough effect; inconclusive means small, poorly fitted or top-dose-only effect; inactive means no such curve, though single readings can be large or run the other way.
Returns: one label drawn from class 1 = active, class 0 = inactive

Here's what some known entries look like.
{"molecule": "CCCCC(=O)N1CCC(C(=O)Nc2ccc([S+](=O)([O-])Nc3nccs3)cc2)CC1", "classification": "class 0"}
{"molecule": "COc1ccc(C2=Nn3c(nnc3-c3cccc(OC)c3OC)SC2)cc1", "classification": "class 0"}
{"molecule": "Cc1ccc(Nc2nc(C#N)nc(NC3CCCC3)n2)cc1", "classification": "class 0"}

Query :: How did this test come out for CC(C)(C)c1ccc(C[C@H](C(=O)O)N2C(=O)c3ccc(C(=O)O)cc3C2=O)cc1 ?
Result :: class 0

Query :: Per the assay record, what outcome was assigned to O=C(Nc1cccc([S+](=O)([O-])Nc2ccccc2F)c1)c1ccccc1 ?
Result :: class 0

Query :: Hey, what did the test say about C=C1C(=O)O[C@H]2C[C@@H](C)[C@@H]3CCC(=O)[C@@]3(C)C[C@H]12 ?
Result :: class 1

Query :: Record lookup: outcome of this test for O=C(Nc1cccc(C(F)(F)F)c1)c1cccc(C(=O)Nc2cccc(C(F)(F)F)c2)c1 ?
Result :: class 0

Query :: State the result this test recorded for O=C1NS(=O)(=O)c2cc(Br)ccc21 .
Result :: class 0

Query :: Write down the call the test reported for this molecule. Item: CC(C)(C)OC(=O)N1CCN(c2cccc(NCc3ccc(-c4ccc(C#N)cc4)o3)c2)CC1
Result :: class 1

Query :: Per the records of this test, what outcome belongs to Cc1ccc(OCCn2c(CCNC(=O)c3ccc([N+](=O)[O-])cc3)nc3ccccc32)cc1 ?
Result :: class 0

Query :: Any idea what this test logged for COc1cc(C(O)C2COC(c3ccc(OC4OC(CO)C(O)C(O)C4O)c(OC)c3)C2CO)ccc1O (stereo unspecified) ?
Result :: class 0

Query :: Could you please tell me the result logged for N#Cc1c(-c2ccc(O)cc2)no[n+]1[O-] in this assay?
Result :: class 1

Query :: Returns: the outcome recorded for COc1cccc(Cc2nc3ccccc3nc2SCC(=O)N2CCN(c3ccccc3)CC2)c1 in this assay.
Result :: class 0

Query :: Which outcome was entered for the molecule Clc1cccc(-c2ccc(C3Nc4cccc5cccc(c45)N3)o2)c1 in this test?
Result :: class 1

Query :: Check the results log: what was the call for COc1ccccc1-c1cc(C(=O)NCc2ccc(C(F)(F)F)cc2)c2cnn(C)c2n1 ?
Result :: class 0

Query :: What is the recorded call for this molecule in the test? Cc1ccc(-c2ccc(C=O)cc2)c(C)c1
Result :: class 1

Query :: Hey, what did the test say about O=C(O)c1ccc(-n2cccc2/C=C2\SC(=O)N(Cc3cccc(Cl)c3)C2=O)cc1 ?
Result :: class 1

Query :: # lookup: test call for Cc1ccnc(NC(=S)N2CCN(c3ccc(N)cc3)CC2)c1
Result :: class 0

Query :: // param item: C=C(C(=O)OC)C1CCC2(C)C(O[C@@H]3O[C@H](CO)[C@@H](O)[C@H](O)[C@H]3O)CC(=O)C(C)C2C1O (stereo partly specified) ; yields the recorded call
Result :: class 0

Query :: Name the outcome recorded for CCc1c(C)sc(NC(=O)C2CCCCC2C(=O)O)c1C(N)=O (stereo unspecified) in the assay.
Result :: class 0

Query :: How was CC(C)(C)OC(=O)N1CCN(c2cnc(NCc3ccc(-c4ccc(C#N)cc4)o3)cn2)CC1 classified in this test?
Result :: class 1
